These data points were gathered from paper PMC6286156.

System: lysosomal Ca^2+ content, U2OS cells
Experiment: Counterscreen: GPN-evoked lysosomal Ca2+ release
Assay type: cell-based, human
Details: drug 30 μM, GPN 300 μM, peak fluo-4 F/F0
Kindly supply the reported Counterscreen (human cells) Ca^2+ release (% GPN) values for the records listed here.
The response must be a number in % with no trailing unit.

For Cl.Cl.c1ccc(CCCN2CCN(CCOC(c3ccccc3)c3ccccc3)CC2)cc1 [GBR-12935 dihydrochloride] the compound record lists Counterscreen (human cells) Ca^2+ release (% GPN) as 61.1

According to the records, this compound CCS(=O)(=O)Nc1cccc(C(=C2CCCCC2)c2cnc[nH]2)c1 displays Counterscreen (human cells) Ca^2+ release (% GPN) of 97.1

Sample CCCCCCCCCC(=O)NC(CN1CCOCC1)C(O)c1ccccc1.Cl (stereo not drawn) [PDMP, PDMP hydrochloride] ; Counterscreen (human cells) Ca^2+ release (% GPN) observed: 91.4

Data point: CCN(CC)CCCCCCCCOC(=O)c1cc(OC)c(OC)c(OC)c1.Cl [TMB-8 hydrochloride] ; Counterscreen (human cells) Ca^2+ release (% GPN) = 68.8

Cc1nc(N=Nc2ccc(S(=O)(=O)[O-])cc2S(=O)(=O)[O-])c(COP(=O)([O-])[O-])c(C=O)c1O.[Na+].[Na+].[Na+].[Na+] [PPADS, PPADS tetrasodium salt] yielded Counterscreen (human cells) Ca^2+ release (% GPN) of 91.3

Reported Counterscreen (human cells) Ca^2+ release (% GPN) ( CC1(C)C(=O)N(CCN2CCC(C(=O)c3ccc(F)cc3)CC2)c2ccccc21.Cl [LY-310,762 hydrochloride] ) = 108.1

---

Test system: lysosomal labelling (LysoTracker Red), U2OS cells
Assay: Counterscreen: LysoTracker Red
Type: cell-based, human
Settings: drug 30 μM, minimum LTR F/F0 before GPN
Binary call on Counterscreen (human cells) LTR signal (% control) with cut-off 90%: strictly below means 1, and equality or higher means -1.

Q: Here's an entry: Cl.Cl.c1ccc(CCCN2CCN(CCOC(c3ccccc3)c3ccccc3)CC2)cc1 [GBR-12935 dihydrochloride] . Is its Counterscreen (human cells) LTR signal (% control) below 90%?
Ans: 1

Q: In plain terms, does CCN(CC)CCCCCCCCOC(=O)c1cc(OC)c(OC)c(OC)c1.Cl [TMB-8 hydrochloride] come in under 90% for Counterscreen (human cells) LTR signal (% control)?
Ans: 1

Q: Input CCS(=O)(=O)Nc1cccc(C(=C2CCCCC2)c2cnc[nH]2)c1 ; condition: Counterscreen (human cells) LTR signal (% control) strictly below 90%. Does it hold?
Ans: -1

---

Tested on: specific ^32P-NAADP binding in sea urchin egg homogenates
Test: 32P-NAADP radioligand binding in sea urchin egg homogenate
Set-up: species or system Strongylocentrotus purpuratus
Conditions: drug 30 μM, specific 32P-NAADP binding relative to vehicle
Structures can show the parent of a compound that is named as a salt.
I'd appreciate it if you could supply 2° Screen (sea urchin) NAADP binding (% inhibition) values for the items below.
Response body: numeric value in %, unit text excluded.

Tested on specific ^32P-NAADP binding in sea urchin egg homogenates, the item CC1(C)C(=O)N(CCN2CCC(C(=O)c3ccc(F)cc3)CC2)c2ccccc21.Cl [LY-310,762 hydrochloride] showed 2° Screen (sea urchin) NAADP binding (% inhibition) equal to −2.8

Summary: Cl.Fc1ccc(C(OCCCc2c[nH]cn2)c2ccc(F)cc2)cc1 [IPFME] , specific ^32P-NAADP binding in sea urchin egg homogenates, 2° Screen (sea urchin) NAADP binding (% inhibition) = 2.9

specific ^32P-NAADP binding in sea urchin egg homogenates data for CCN(CC)CCCCCCCCOC(=O)c1cc(OC)c(OC)c(OC)c1.Cl [TMB-8 hydrochloride] ; its 2° Screen (sea urchin) NAADP binding (% inhibition): −16.6

The value of 2° Screen (sea urchin) NAADP binding (% inhibition) recorded for CCS(=O)(=O)Nc1cccc(C(=C2CCCCC2)c2cnc[nH]2)c1 [A-315456] when tested on specific ^32P-NAADP binding in sea urchin egg homogenates reads 8.4

Item Cc1nc(N=Nc2ccc(S(=O)(=O)[O-])cc2S(=O)(=O)[O-])c(COP(=O)([O-])[O-])c(C=O)c1O.[Na+].[Na+].[Na+].[Na+] [PPADS, PPADS tetrasodium salt] ; assay system specific ^32P-NAADP binding in sea urchin egg homogenates; 2° Screen (sea urchin) NAADP binding (% inhibition) reported as 84.8

Field 2° Screen (sea urchin) NAADP binding (% inhibition) (system: specific ^32P-NAADP binding in sea urchin egg homogenates) for entry COc1cc(C(=O)OCCCN2CCCN(CCCOC(=O)c3cc(OC)c(OC)c(OC)c3)CC2)cc(OC)c1OC [Dilazep hydrochloride, dilazep hydrochloride] = −10.9

Test item CC(=O)SCC(Cc1ccccc1)C(=O)NCC(=O)OCc1ccccc1 (stereo not shown) [Racecadotril, racecadotril] ; specific ^32P-NAADP binding in sea urchin egg homogenates; reported 2° Screen (sea urchin) NAADP binding (% inhibition) was −8.3

---

Tested on: specific ^32P-NAADP binding in sea urchin egg homogenates
Test: 32P-NAADP radioligand binding in sea urchin egg homogenate
Parameters: species or system Strongylocentrotus purpuratus
Conditions: drug 30 μM, specific 32P-NAADP binding relative to vehicle
Counter-ions that a name gives are not always drawn.
assay-endpoint: 2° Screen (sea urchin) NAADP binding (% inhibition) (%)
// note: answer is a bare numeric in %

The measured 2° Screen (sea urchin) NAADP binding (% inhibition) associated with CN1CCN(CCCN2c3ccccc3Sc3ccc(C(F)(F)F)cc32)CC1 [Trifluoperazine dihydrochloride, trifluoperazine dihydrochloride] reads −13.7

OCc1cc(C(O)CNCCCCCCOCCCCc2ccccc2)ccc1O (centres unmarked) [Salmeterol xinafolate, salmeterol xinafoate] yielded 2° Screen (sea urchin) NAADP binding (% inhibition) of −2.3

Value of 2° Screen (sea urchin) NAADP binding (% inhibition) reported for the molecule Cl.Cl.c1ccc(CCCN2CCN(CCOC(c3ccccc3)c3ccccc3)CC2)cc1 [GBR-12935 dihydrochloride] is 3.4

GET /value?item= CCCCCCCCCC(=O)NC(CN1CCOCC1)C(O)c1ccccc1.Cl (centres unmarked) [PDMP, PDMP hydrochloride] &field=2° Screen (sea urchin) NAADP binding (% inhibition) returns 6.0

For COc1ccc(CCCOC(Cn2ccnc2)c2ccc(OC)cc2)cc1 (centres unmarked) [SKF 96,365, SKF 96365 hydrochloride] the molecule record lists 2° Screen (sea urchin) NAADP binding (% inhibition) as −5.3

---

Kindly supply the reported Counterscreen (human cells) LTR signal (% control) values for the records listed here.
Test system: lysosomal labelling (LysoTracker Red), U2OS cells
Test: Counterscreen: LysoTracker Red
Type: cell-based, human
Conditions: drug 30 μM, minimum LTR F/F0 before GPN
The response must be a number in % with no trailing unit.

// Counterscreen (human cells) LTR signal (% control) value for CCCCCCCCCC(=O)NC(CN1CCOCC1)C(O)c1ccccc1.Cl (stereo not drawn) [PDMP, PDMP hydrochloride] : 91.6

Briefly, Counterscreen (human cells) LTR signal (% control) measured for CC1(C)C(=O)N(CCN2CCC(C(=O)c3ccc(F)cc3)CC2)c2ccccc21.Cl [LY-310,762 hydrochloride] : 90.2

For this compound ( Cc1nc(N=Nc2ccc(S(=O)(=O)[O-])cc2S(=O)(=O)[O-])c(COP(=O)([O-])[O-])c(C=O)c1O.[Na+].[Na+].[Na+].[Na+] [PPADS, PPADS tetrasodium salt] ), measured Counterscreen (human cells) LTR signal (% control) is 92.1
